Test system: 354836-022-R-J1-PDC multicell spheroid viability
measurementProtocol: Anticancer human tumor 354836-022-R-J1-PDC patient-derived head and neck squamous cell carcinoma cell line growth inhibition [PI3K]
settings: second compound 3.16 µM; first compound 0.00316 µM; hits give low values
Kindly supply the reported viability, T/C values for the records listed here.
Give bare numbers, in %.

[
  {
    "molecule": "Cn1ncnc1[C@H]1c2n[nH]c(=O)c3cc(F)cc(c23)N[C@@H]1c1ccc(F)cc1 + CC(Nc1ncnc2nc[nH]c12)c1cc2cccc(Cl)c2c(=O)n1-c1ccccc1",
    "scaleUnit": "%",
    "viability, T/C": 92.1
  },
  {
    "molecule": "CC(C)n1nc(-c2ccc3oc(N)nc3c2)c2c(N)ncnc21 + Cc1nc(NC(=O)N2CCCC2C(N)=O)sc1-c1ccnc(C(C)(C)C(F)(F)F)c1",
    "scaleUnit": "%",
    "viability, T/C": 60.2
  },
  {
    "molecule": "Cn1ncnc1[C@H]1c2n[nH]c(=O)c3cc(F)cc(c23)N[C@@H]1c1ccc(F)cc1 + Cc1nc(NC(=O)N2CCCC2C(N)=O)sc1-c1ccnc(C(C)(C)C(F)(F)F)c1",
    "scaleUnit": "%",
    "viability, T/C": 62.8
  }
]

Quick batch: viability, T/C for everything below.
1. CCN1CCN(Cc2ccc(Nc3ncc(F)c(-c4cc(F)c5nc(C)n(C(C)C)c5c4)n3)nc2)CC1 + Cc1nc(NC(=O)N2CCCC2C(N)=O)sc1-c1ccnc(C(C)(C)C(F)(F)F)c1
2. CC(=O)c1c(C)c2cnc(Nc3ccc(N4CCNCC4)cn3)nc2n(C2CCCC2)c1=O + CC(Nc1ncnc2nc[nH]c12)c1cc2cccc(Cl)c2c(=O)n1-c1ccccc1

A.
1: 51.9; 2: 98.5

---

System: 354836-022-R-J1-PDC multicell spheroid viability
measurementProtocol: Anticancer human tumor 354836-022-R-J1-PDC cell line growth inhibition [PI3K]; active = viability on the fitted dose curve at most 10% of control; inactive = the rest;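 note: spheroids exposed to agents for seven days before the viability read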
settings: second compound 1 µM; first compound 0.0316 µM
Can you answer with just one of these options? active, inactive

These solved cases illustrate the format of a correct answer.
[
  {
    "compound": "CCCS(=O)(=O)Nc1ccc(F)c(C(=O)c2c[nH]c3ncc(-c4ccc(Cl)cc4)cc23)c1F + CC(Nc1ncnc2nc[nH]c12)c1cc2cccc(Cl)c2c(=O)n1-c1ccccc1",
    "group": "inactive"
  },
  {
    "compound": "CCN1CCN(Cc2ccc(Nc3ncc(F)c(-c4cc(F)c5nc(C)n(C(C)C)c5c4)n3)nc2)CC1 + CC(Nc1ncnc2nc[nH]c12)c1cc2cccc(Cl)c2c(=O)n1-c1ccccc1",
    "group": "inactive"
  },
  {
    "compound": "C#Cc1c(F)ccc2cc(O)cc(-c3ncc4c(N5CC6CCC(C5)N6)nc(OCC56CCCN5CC(F)C6)nc4c3F)c12 (stereo not given) + COc1c(OCCCN2CCOCC2)ccc2c3n(c(=NC(=O)c4cnc(N)nc4)nc12)CCN3",
    "group": "active"
  },
  {
    "compound": "C[C@@H](NC(=O)c1ncnc(N)c1Cl)c1ncc(C(=O)Nc2cc(C(F)(F)F)c(Cl)cn2)s1 + CC(Nc1ccc2c(c1)OCCn1cc(N3C(=O)OCC3C(F)F)nc1-2)C(N)=O",
    "group": "inactive"
  }
]

Let us examine a further case.
Q. Test call for this compound, please: Cn1nccc1Nc1nccc(-c2ccn(C(CO)c3ccc(Cl)c(F)c3)c(=O)c2)n1 (stereo not given) + CC(Nc1ccc2c(c1)OCCn1cc(N3C(=O)OCC3C(F)F)nc1-2)C(N)=O
A. inactive

---

Test system: 354836-022-R-J1-PDC multicell spheroid viability
measurementProtocol: Anticancer human tumor 354836-022-R-J1-PDC cell line growth inhibition [PI3K];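 note: spheroids exposed to agents for seven days before the viability read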
settings: second compound 0.01 µM; first compound 0.316 µM; hits give low values
measureName: viability, T/C

Here are 3 molecules together with their reported answers.
[
  {
    "molecule": "CC(Cn1ccc(-c2ccc(C#N)c(Cl)c2)n1)NC(=O)c1cc(C(C)O)[nH]n1 (centres undefined) + CC(Nc1ccc2c(c1)OCCn1cc(N3C(=O)OCC3C(F)F)nc1-2)C(N)=O",
    "val": "99.6%"
  },
  {
    "molecule": "CCCS(=O)(=O)Nc1ccc(F)c(C(=O)c2c[nH]c3ncc(-c4ccc(Cl)cc4)cc23)c1F + COc1c(OCCCN2CCOCC2)ccc2c3n(c(=NC(=O)c4cnc(N)nc4)nc12)CCN3",
    "val": "93.7%"
  },
  {
    "molecule": "C[C@@H](NC(=O)c1ncnc(N)c1Cl)c1ncc(C(=O)Nc2cc(C(F)(F)F)c(Cl)cn2)s1 + CC(Nc1ccc2c(c1)OCCn1cc(N3C(=O)OCC3C(F)F)nc1-2)C(N)=O",
    "val": "91.4%"
  }
]

Now, please, on to the next molecule.
Q. Which viability, T/C reading was recorded for the molecule CCN1CCN(Cc2ccc(Nc3ncc(F)c(-c4cc(F)c5nc(C)n(C(C)C)c5c4)n3)nc2)CC1 + COc1c(OCCCN2CCOCC2)ccc2c3n(c(=NC(=O)c4cnc(N)nc4)nc12)CCN3 ?
A. 83.5%

---

Tested on: 354836-022-R-J1-PDC multicell spheroid viability
measurementProtocol: Anticancer human tumor 354836-022-R-J1-PDC cell line growth inhibition [PI3K];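 note: spheroids exposed to agents for seven days before the viability read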
settings: second compound 1 µM; first compound 0.0316 µM; hits give low values
Description: Combinatorial screen of targeted agents with the PI3K inhibitors inavolisib, alpelisib, duvelisib, and copanlisib in multi-cell type tumor spheroids A high-throughput screen of multi-cell type tumor spheroids was designed to identify active combinations of targeted small molecules and PI3K pathway inhibitors. […] Compounds. […] If the clinical Cmax for an agent had not been determined, the highest concentration tested was 10 microM. […]
Field: viability, T/C. Provide a value for each of the compounds that follow.

Reference set, count: 2
[
  {
    "compound": "CC(C)n1nc(-c2ccc3oc(N)nc3c2)c2c(N)ncnc21 + CC(Nc1ccc2c(c1)OCCn1cc(N3C(=O)OCC3C(F)F)nc1-2)C(N)=O",
    "val": "19.4%"
  },
  {
    "compound": "CC1(C)CCC(Nc2ncc(C(F)(F)F)c(-c3c[nH]c4c(P(C)(C)=O)c(C#N)ccc34)n2)CN1 (stereo unspecified) + COc1c(OCCCN2CCOCC2)ccc2c3n(c(=NC(=O)c4cnc(N)nc4)nc12)CCN3",
    "val": "1.25%"
  }
]

// batch mode: one viability, T/C value per listed entry
1. CC1(C)CCC(Nc2ncc(C(F)(F)F)c(-c3c[nH]c4c(P(C)(C)=O)c(C#N)ccc34)n2)CN1 (stereo unspecified) + CC(Nc1ccc2c(c1)OCCn1cc(N3C(=O)OCC3C(F)F)nc1-2)C(N)=O
2. C#Cc1c(F)ccc2cc(O)cc(-c3ncc4c(N5CC6CCC(C5)N6)nc(OCC56CCCN5CC(F)C6)nc4c3F)c12 (stereo unspecified) + Cc1nc(NC(=O)N2CCCC2C(N)=O)sc1-c1ccnc(C(C)(C)C(F)(F)F)c1
3. Cn1nccc1Nc1nccc(-c2ccn(C(CO)c3ccc(Cl)c(F)c3)c(=O)c2)n1 (stereo unspecified) + COc1c(OCCCN2CCOCC2)ccc2c3n(c(=NC(=O)c4cnc(N)nc4)nc12)CCN3

A.
1. 14.1%
2. 75.9%
3. 1.52%

Please give viability, T/C, item by item, for the list that follows.
1. CCCS(=O)(=O)Nc1ccc(F)c(C(=O)c2c[nH]c3ncc(-c4ccc(Cl)cc4)cc23)c1F + COc1c(OCCCN2CCOCC2)ccc2c3n(c(=NC(=O)c4cnc(N)nc4)nc12)CCN3
2. CC(C)NCC(C(=O)N1CCN(c2ncnc3c2C(C)CC3O)CC1)c1ccc(Cl)cc1 (stereo unspecified) + CC(Nc1ccc2c(c1)OCCn1cc(N3C(=O)OCC3C(F)F)nc1-2)C(N)=O
3. CC(C)n1nc(-c2ccc3oc(N)nc3c2)c2c(N)ncnc21 + Cc1nc(NC(=O)N2CCCC2C(N)=O)sc1-c1ccnc(C(C)(C)C(F)(F)F)c1

A.
["1.35%", "56.7%", "26.5%"]

Batch lookup, viability, T/C per entry.
1. C=CC(=O)N1CCN(c2nc(=O)n(-c3c(C)ccnc3C(C)C)c3nc(-c4c(O)cccc4F)c(F)cc23)C(C)C1 (stereo unspecified) + Cc1nc(NC(=O)N2CCCC2C(N)=O)sc1-c1ccnc(C(C)(C)C(F)(F)F)c1
2. CC(=O)c1c(C)c2cnc(Nc3ccc(N4CCNCC4)cn3)nc2n(C2CCCC2)c1=O + CC(Nc1ncnc2nc[nH]c12)c1cc2cccc(Cl)c2c(=O)n1-c1ccccc1
3. Cn1ncnc1[C@H]1c2n[nH]c(=O)c3cc(F)cc(c23)N[C@@H]1c1ccc(F)cc1 + Cc1nc(NC(=O)N2CCCC2C(N)=O)sc1-c1ccnc(C(C)(C)C(F)(F)F)c1

A.
["72.6%", "96.8%", "85.3%"]
